- test-system: Bifunctional dihydrofolate reductase-thymidylate synthase (Plasmodium falciparum K1, UniProt P13922)
- Sequence (P13922 whole entry): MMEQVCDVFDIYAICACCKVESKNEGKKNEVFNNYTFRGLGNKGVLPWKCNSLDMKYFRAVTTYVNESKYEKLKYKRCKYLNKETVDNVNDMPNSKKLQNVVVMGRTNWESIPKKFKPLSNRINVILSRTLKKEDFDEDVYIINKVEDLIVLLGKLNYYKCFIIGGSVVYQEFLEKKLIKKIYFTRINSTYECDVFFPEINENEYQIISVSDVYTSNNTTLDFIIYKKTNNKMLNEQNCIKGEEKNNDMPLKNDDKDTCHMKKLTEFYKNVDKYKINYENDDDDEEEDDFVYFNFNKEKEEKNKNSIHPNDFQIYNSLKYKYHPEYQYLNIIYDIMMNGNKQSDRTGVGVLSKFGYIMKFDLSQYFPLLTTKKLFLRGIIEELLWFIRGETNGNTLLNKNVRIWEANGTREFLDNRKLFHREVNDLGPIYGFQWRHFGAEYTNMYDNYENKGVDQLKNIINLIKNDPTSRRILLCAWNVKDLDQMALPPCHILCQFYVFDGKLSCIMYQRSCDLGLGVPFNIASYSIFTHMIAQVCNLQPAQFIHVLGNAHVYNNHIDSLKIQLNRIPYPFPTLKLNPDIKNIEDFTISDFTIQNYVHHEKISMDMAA
- test-summary: TBD: TBD
measured-metric: IC50
Form entry: enter the amount, then its unit.

What measured IC50 goes with Nc1ncc(N2CCN(c3cccc(C4CCOCC4)c3)CC2)c(N)n1 ?
1.1 nM
